Overview of reported % Ctrl across a group of compounds:
# System: TNK2
# ASSAY REMARKS: KINOMEscan kinase binding assay
# PARTICULARS: at 1 μM
# Experimental: Kinase binding assays were performed at Eurofins/DiscoveRx using the general KINOMEscan Protocol (Fabian, M. A. et al., “A small molecule-kinase interaction map for clinical kinase inhibitors,” Nat. Biotechnol. 2005, 23(3):329-36). […] The kinase concentration in the eluates was measured by qPCR. […] Dissociation constants (Kds) for test compound-kinase interactions were calculated by measuring the amount of kinase captured on the solid support as a function of the test compound concentration.
Give the figure together with its unit, number first.

As a guide, the following entries are already answered.
{"columns": ["MOL SMILES", "ASSAY SYSTEM", "% Ctrl"],
 "data": [
  ["Cc1cc2c([nH]1)/C=C1\\C(=O)Nc3c(Cl)cc(cc31)-c1cn(C)nc1COC[C@@H](C)NC2=O", "TNK2", "97%"],
  ["C[C@@H]1COCc2nn(C)cc2-c2cc(Cl)c3c(c2)/C(=C/c2[nH]ccc2C(=O)N1)C(=O)N3", "TNK2", "100%"],
  ["Cc1cc2c([nH]1)/C=C1\\C(=O)Nc3ccc(cc31)-c1c(nn(C)c1C)COCCN(C)C2=O", "TNK2", "89%"],
  ["Cc1cc2c([nH]1)/C=C1\\C(=O)Nc3ccc(cc31)-c1c(nn(C)c1C)OCCCN(C)C2=O", "TNK2", "100%"]
]}

For reference, reported % Ctrl for Cc1cc2c([nH]1)/C=C1\C(=O)Nc3c(Cl)cc(cc31)-c1cn(C)nc1COC[C@@H](C)N(C)C2=O stands at 87%
